Tested on: SNB-19 CNS
TEST_DETAILS: NCI-60 one-dose screen, 48 h
CONDITION_PARAMETERS: 10 µM
The panel holds about 83,000 compounds, 20% with a hit somewhere; the sample as a whole holds those more often. Calls of active or inactive are those of the source. How the source made its calls: active means growth percent below 10; inactive means the rest.
Classes used: active, inactive

| COMPOUND | CLASS_LABEL |
| --- | --- |
| COc1ccc2c(ccc3oc([N+](=O)[O-])cc32)c1 | active |
| CC/C(=C/c1ccc(OC)cc1)[N+](=O)[O-] | inactive |
| O=C(O)c1cc(Cc2ccc(O)c(C(=O)O)c2)ccc1O (tested in a mixture with another compound) | inactive |
| O=C(CBr)Nc1ccc(Cl)cc1 | inactive |
| O=C(CBr)Nc1ccccc1 | inactive |
| NNc1ccccc1 | inactive |
| CC1CCC2(OC1)OC1C(O)C3C4CCC5CC(OC6OC(CO)C(OC7OC(CO)C(O)C(OC8OCC(O)C(O)C8O)C7OC7OC(CO)C(O)C(OC8OC(CO)C(O)C(O)C8O)C7O)C(O)C6O)C(O)CC5(C)C4CCC3(C)C1C2C (configuration not stated) | active |
| O=[N+]([O-])c1ccc(N2CCOCC2)c2c1no[n+]2[O-] | inactive |
| CC(C)c1cc([N+](=O)[O-])cc([N+](=O)[O-])c1O | inactive |
| Oc1c(I)cc(I)cc1I | inactive |
| COc1cc([C@@H]2c3cc4c(c(O)c3C[C@H]3COC(=O)[C@@H]32)OCO4)cc(OC)c1OC | active |
| CCOP(=O)(OCC)C(O)c1ccccc1Cl (configuration not stated) | inactive |

The reported measurements were obtained from PubChem BioAssay (NCI).
